Catalogue of molecules with associated Percent Control
tested on: ARK5; construct: gene NUAK1; settings: Compound Concentration (nM):1000;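 note: KINOMEscan scanMAX binding as percent activity remaining versus control; lower means stronger binding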
Answer with a number only, understood to be in %.

### Prompt Field: Percent Control (ARK5). Entry: CN(C)c1cc2c(Nc3ccc4c(cnn4Cc4ccccc4)c3)ncnc2cn1 [GW282974X]
### Response 100

### Prompt What reported Percent Control corresponds to O=C1Nc2ccc(C(=O)c3ccco3)cc2C1=Cc1cc(Cl)c(O)c(Cl)c1 [GW406108X] on ARK5?
### Response 100

### Prompt Query for ARK5: what Percent Control does the record show for CCc1ccc(Oc2nccc(-c3c(-c4ccc(F)cc4)ncn3C3CCNCC3)n2)cc1 [SB-242719] ?
### Response 100

// next item, Percent Control requested
### Prompt Enter reported Percent Control observed with ARK5 for CN1CCN(C(=O)c2ccc(NC(=O)Nc3ccc(N(C)c4ccnc(Nc5ccc(CS(C)(=O)=O)cc5)n4)cc3)cc2)CC1.Cl [GW830263A]
### Response 78
